Activity overview
test system: Eimeria maxima; experiment: Anticoccidial activity against Eimeria maxima in chickens assessed as reduction of oocysts at 6.25 ppm measured after 8 days by ExMAC assay relative to untreated control; type: functional; set-up: scale not given: the % may be the effect or the level left
measured-quantity: Activity

{"columns": ["molecule", "measured-quantity", "meas-value"],
 "data": [
  ["CC(c1ccn2c(-c3ccnc(N)n3)c(-c3ccc(F)cc3)nc2c1)N(C)C (stereo not given)", "Activity", "<50%"],
  ["CCN(CC)Cc1ccn2c(-c3ccnc(N)n3)c(-c3ccc(F)cc3)nc2c1", "Activity", "<50%"],
  ["CN1CCN(c2ccn3c(-c4ccnc(N)n4)c(-c4ccc(F)cc4)nc3c2)CC1", "Activity", "<50%"],
  ["CN(C)CCc1ccn2c(-c3ccnc(N)n3)c(-c3ccc(F)cc3)nc2c1", "Activity", "50%"],
  ["Nc1nccc(-c2c(-c3ccc(F)cc3)nc3cc(C4CCN(CCCO)CC4)ccn23)n1", "Activity", "<50%"]
]}

====

system: Eimeria tenella; experiment: Anticoccidial activity against Eimeria tenella in chickens assessed as reduction of oocysts at 12.5 ppm measured after 8 days by ExMAC assay relative to untreated control; assay type: functional; parameters: scale not given: the % may be the effect or the level left
measured-quantity: Activity (%)

{"columns": ["structure-smiles-string", "sign-qualifier", "meas-value"],
 "data": [
  ["COCCN(C)Cc1ccn2c(-c3ccnc(N)n3)c(-c3ccc(F)cc3)nc2c1", "<", 50],
  ["CCN1CCC(c2ccn3c(-c4ccnc(N)n4)c(-c4ccc(F)cc4)nc3c2)CC1", "=", 100],
  ["CN(C)CCCc1ccn2c(-c3ccnc(N)n3)c(-c3ccc(F)cc3)nc2c1", "=", 80],
  ["CCN(CC)Cc1ccn2c(-c3ccnc(N)n3)c(-c3ccc(F)cc3)nc2c1", "=", 80],
  ["Nc1nccc(-c2c(-c3ccc(F)cc3)nc3cc(C4CCN(Cc5ccccc5)CC4)ccn23)n1", "=", 80],
  ["CN(C)Cc1ccn2c(-c3ccnc(N)n3)c(-c3ccc(F)cc3)nc2c1", "=", 80],
  ["Nc1nccc(-c2c(-c3ccc(F)cc3)nc3cc(C4CCN(CCCO)CC4)ccn23)n1", "=", 100],
  ["CC(C)(C)CCN1CCC(c2ccn3c(-c4ccnc(N)n4)c(-c4ccc(F)cc4)nc3c2)CC1", "=", 80],
  ["CN1CCN(Cc2ccn3c(-c4ccnc(N)n4)c(-c4ccc(F)cc4)nc3c2)CC1", "<", 50]
]}

====

system: Eimeria mitis; assay: Anticoccidial activity against Eimeria mitis in chickens assessed as reduction of oocysts at 25 ppm measured after 8 days by ExMAC assay relative to untreated control; format: functional; design: scale not given: the % may be the effect or the level left

{"columns": ["molecule", "Activity"],
 "data": [
  ["Nc1nccc(-c2c(-c3ccc(F)cc3)nc3cc(C4CCNCC4)ccn23)n1", "<50%"],
  ["Nc1nccc(-c2c(-c3ccc(F)cc3)nc3cc(C4CCN(CCCO)CC4)ccn23)n1", "<50%"],
  ["Nc1nccc(-c2c(-c3ccc(F)cc3)nc3cc(C4CCN(Cc5ccccc5)CC4)ccn23)n1", "<50%"],
  ["CN(C)C(=N)c1ccn2c(-c3ccnc(N)n3)c(-c3ccc(F)cc3)nc2c1", "<50%"],
  ["CNC(=O)c1ccn2c(-c3ccnc(N)n3)c(-c3ccc(F)cc3)nc2c1", "<50%"],
  ["CN(CC#N)Cc1ccn2c(-c3ccnc(N)n3)c(-c3ccc(F)cc3)nc2c1", "<50%"],
  ["CN(C)c1ccn2c(-c3ccnc(N)n3)c(-c3ccc(F)cc3)nc2c1", "<50%"],
  ["CCC(CN(C)C)c1ccn2c(-c3ccnc(N)n3)c(-c3ccc(F)cc3)nc2c1 (centres undefined)", "<50%"],
  ["Nc1nccc(-c2c(-c3ccc(F)cc3)nc3cc(C4CCN(CCO)CC4)ccn23)n1", "<50%"]
]}

====

test system: Eimeria tenella; assay: Anticoccidial activity against Eimeria tenella in chickens assessed as reduction of oocysts at 12.5 ppm measured after 8 days by ExMAC assay relative to untreated control; assay type: functional; design: scale not given: the % may be the effect or the level left

{"columns": ["molecule", "target", "readout-unit", "sign-qualifier", "Activity"],
 "data": [
  ["CN(CCO)Cc1ccn2c(-c3ccnc(N)n3)c(-c3ccc(F)cc3)nc2c1", "Eimeria tenella", "%", "<", 50],
  ["Nc1nccc(-c2c(-c3ccc(F)cc3)nc3cc(C4CCN(CCc5ccccc5)CC4)ccn23)n1", "Eimeria tenella", "%", "<", 50],
  ["C#CCN(C)Cc1ccn2c(-c3ccnc(N)n3)c(-c3ccc(F)cc3)nc2c1", "Eimeria tenella", "%", "<", 50],
  ["CCC(c1ccn2c(-c3ccnc(N)n3)c(-c3ccc(F)cc3)nc2c1)N(C)C (configuration not stated)", "Eimeria tenella", "%", "=", 100],
  ["Nc1nccc(-c2c(-c3ccc(F)cc3)nc3cc(C4CCN(CCO)CC4)ccn23)n1", "Eimeria tenella", "%", "=", 99],
  ["CCC(C)CN1CCC(c2ccn3c(-c4ccnc(N)n4)c(-c4ccc(F)cc4)nc3c2)CC1 (configuration not stated)", "Eimeria tenella", "%", "=", 80],
  ["CCCC(C)CN1CCC(c2ccn3c(-c4ccnc(N)n4)c(-c4ccc(F)cc4)nc3c2)CC1 (configuration not stated)", "Eimeria tenella", "%", "=", 80],
  ["CN(C)CC(F)c1ccn2c(-c3ccnc(N)n3)c(-c3ccc(F)cc3)nc2c1 (configuration not stated)", "Eimeria tenella", "%", "=", 80],
  ["Nc1nccc(-c2c(-c3ccc(F)cc3)nc3cc(C4CCN(CC5CC5)CC4)ccn23)n1", "Eimeria tenella", "%", "=", 100],
  ["CN(C)c1ccn2c(-c3ccnc(N)n3)c(-c3ccc(F)cc3)nc2c1", "Eimeria tenella", "%", "=", 50],
  ["CCCC(c1ccn2c(-c3ccnc(N)n3)c(-c3ccc(F)cc3)nc2c1)N(C)C (configuration not stated)", "Eimeria tenella", "%", "<", 50],
  ["CC(C)CN1CCC(c2ccn3c(-c4ccnc(N)n4)c(-c4ccc(F)cc4)nc3c2)CC1", "Eimeria tenella", "%", "=", 100]
]}

====

tested on: Eimeria tenella; assay: Anticoccidial activity against Eimeria tenella in chickens assessed as reduction of oocysts at 6.25 ppm measured after 8 days by ExMAC assay relative to untreated control; format: functional; design: scale not given: the % may be the effect or the level left

{"columns": ["compound", "Activity"],
 "data": [
  ["CN(C)CC(C)(C)c1ccn2c(-c3ccnc(N)n3)c(-c3ccc(F)cc3)nc2c1", "<50%"],
  ["CCCC(c1ccn2c(-c3ccnc(N)n3)c(-c3ccc(F)cc3)nc2c1)N(C)C (stereo unspecified)", "<50%"],
  ["CCN(CC)Cc1ccn2c(-c3ccnc(N)n3)c(-c3ccc(F)cc3)nc2c1", "<50%"],
  ["CN(C)CCCc1ccn2c(-c3ccnc(N)n3)c(-c3ccc(F)cc3)nc2c1", "<50%"],
  ["Nc1nccc(-c2c(-c3ccc(F)cc3)nc3cc(C4CCN(Cc5ccccc5)CC4)ccn23)n1", "<50%"],
  ["CC(c1ccn2c(-c3ccnc(N)n3)c(-c3ccc(F)cc3)nc2c1)N(C)C (stereo unspecified)", "100%"],
  ["CN(C)CC(F)c1ccn2c(-c3ccnc(N)n3)c(-c3ccc(F)cc3)nc2c1 (stereo unspecified)", "80%"],
  ["Nc1nccc(-c2c(-c3ccc(F)cc3)nc3cc(C4CCN(CC5CC5)CC4)ccn23)n1", "80%"],
  ["CN1CCN(c2ccn3c(-c4ccnc(N)n4)c(-c4ccc(F)cc4)nc3c2)CC1", "<50%"],
  ["Nc1nccc(-c2c(-c3ccc(F)cc3)nc3cc(C4CCN(CCCO)CC4)ccn23)n1", "<50%"],
  ["CN(C)c1ccn2c(-c3ccnc(N)n3)c(-c3ccc(F)cc3)nc2c1", "<50%"]
]}

====

tested on: Eimeria mitis; experiment: Anticoccidial activity against Eimeria mitis in chickens assessed as reduction of oocysts at 12.5 ppm measured after 8 days by ExMAC assay relative to untreated control; assay type: functional; parameters: scale not given: the % may be the effect or the level left
measured-quantity: Activity

{"columns": ["compound", "measured-quantity", "meas-value"],
 "data": [
  ["Nc1nccc(-c2c(-c3ccc(F)cc3)nc3cc(C4CCN(Cc5ccccc5)CC4)ccn23)n1", "Activity", "<50%"],
  ["CCCC(C)CN1CCC(c2ccn3c(-c4ccnc(N)n4)c(-c4ccc(F)cc4)nc3c2)CC1 (stereo not drawn)", "Activity", "<50%"],
  ["CN(C)c1ccn2c(-c3ccnc(N)n3)c(-c3ccc(F)cc3)nc2c1", "Activity", "<50%"]
]}

====

system: Eimeria mitis; assay: Anticoccidial activity against Eimeria mitis in chickens assessed as reduction of oocysts at 6.25 ppm measured after 8 days by ExMAC assay relative to untreated control; assay type: functional; design: scale not given: the % may be the effect or the level left
Activity overview

{"columns": ["compound", "Activity"],
 "data": [
  ["CN(C)Cc1ccn2c(-c3ccnc(N)n3)c(-c3ccc(F)cc3)nc2c1", "<50%"],
  ["Nc1nccc(-c2c(-c3ccc(F)cc3)nc3cc(C4CCN(Cc5ccccc5)CC4)ccn23)n1", "<50%"],
  ["CCCC(c1ccn2c(-c3ccnc(N)n3)c(-c3ccc(F)cc3)nc2c1)N(C)C (stereo unspecified)", "<50%"],
  ["CN(C)CC(F)c1ccn2c(-c3ccnc(N)n3)c(-c3ccc(F)cc3)nc2c1 (stereo unspecified)", "<50%"],
  ["CN(C)CCc1ccn2c(-c3ccnc(N)n3)c(-c3ccc(F)cc3)nc2c1", "<50%"],
  ["Nc1nccc(-c2c(-c3ccc(F)cc3)nc3cc(C4CCN(CCCO)CC4)ccn23)n1", "<50%"]
]}
